This collection of values is drawn from the supplement of paper PMC7125110.

B1: glmS ribozyme (parent)
chain: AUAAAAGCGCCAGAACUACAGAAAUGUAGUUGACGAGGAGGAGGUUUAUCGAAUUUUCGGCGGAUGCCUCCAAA

# Variants of: B1
# experiment: self-cleavage kobs at 10000 uM GlcN6P; higher = faster cleavage; RNA array
# experimental_setup: with glucosamine-6-phosphate
This sample holds only a part of the variants without activity.
quantity: self-cleavage kobs at 10000 uM GlcN6P (s⁻¹)
A number alone suffices; assume s⁻¹.

A48U G66U : 2.42e-05
U31A G44U : 0.000122
U31G C50G : 3.31e-05
U56G U65A : 0.0026

What value of measured self-cleavage kobs at 10000 uM GlcN6P is listed for G32A U45A ? 0.00438

What value of measured self-cleavage kobs at 10000 uM GlcN6P is listed for U47A U56A ? 0.0235

What value of measured self-cleavage kobs at 10000 uM GlcN6P is listed for U56C U69C ? 3.13e-05

What value of measured self-cleavage kobs at 10000 uM GlcN6P is listed for A6U C50G ? 2.57e-05

What value of measured self-cleavage kobs at 10000 uM GlcN6P is listed for A6G G43C C68G ? 0.000819

What value of measured self-cleavage kobs at 10000 uM GlcN6P is listed for C16A G32U A33U C50G C67U ? 0.000275

What value of measured self-cleavage kobs at 10000 uM GlcN6P is listed for U31C G41U A53G ? 0.000299

What value of measured self-cleavage kobs at 10000 uM GlcN6P is listed for U30A U46C ? 0.000332
